Data origin: ChEMBL document CHEMBL3045178

For each of the compounds below, state its MIC.
- Tested on: Fusarium solani
- METHOD: Antifungal activity against Fusarium solani at 28 degC after 48 hr microbroth dilution method
- Type: functional

Input COc1ccc2c3c4n(c2c1)[C@H](C=C(C)C)OOC(C)(C)C[C@@H]4N1C(=O)[C@@H]2CCCN2C(=O)[C@]1(O)[C@H]3O . Output MIC: 50 µg/mL

Field: MIC. Fill in for each record below.
1. CC(=O)O[C@H]1C[C@@]2(C)[C@@H](CC[C@H]3[C@@]4(C)C=CC(=O)[C@@H](C)[C@@H]4[C@H](OC(C)=O)C(=O)[C@@]32C)/C1=C(\CCC=C(C)C)C(=O)O
2. O=C1CCC(O)c2cccc(O)c21 (configuration not stated) [4,8-DIHYDROXY-1-TETRALONE]
3. COc1ccc2c3c([nH]c2c1)[C@H](CC(C)(C)O)N1C(=O)[C@@H]2CCCN2C(=O)[C@@]1(O)[C@H]3OC
4. C[C@@H]1C(=O)N2c3ccccc3[C@@]3(O)C[C@H](n4cnc5ccccc5c4=O)C(=O)N1[C@H]23

["50 µg/mL", "50 µg/mL", "25 µg/mL", "> 100 µg/mL"]

Field: MIC. Fill in for each record below.
1. C[C@H]1NC(=O)[C@@H](Cc2c[nH]c3ccccc23)n2c1nc1ccccc1c2=O
2. C[C@@H]1N[C@H]2N(C1=O)c1ccccc1[C@@]2(O)C[C@@H]1C(=O)N[C@](C)(O)c2nc3ccccc3c(=O)n21 [3-HYDROXYFUMIQUINAZOLINE A]

["50 µg/mL", "100 µg/mL"]
